Kindly state normalized growth for each of the entries shown.
Test: chemical genetic growth profiling, strain panel (AID 1159580);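 also: tested at 20 µM; growth read once vehicle control cultures reached saturation at 30 °C; 1 = growth at the plate median or of vehicle wells; lower values mean less growth of the strain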
Settings: S. cerevisiae deletion strains, growth OD, locus YOR316C, strain cot1, stronger effect = lower value
Screen size: about 5,500 compounds; about 2,000 (36%) were called active. About 18% were inconclusive and are not listed. Some of the results follow.

Value sought for every listed molecule: normalized growth.
1. NC1(C(=O)O)CC1
2. CCN1C[C@@]2(COC)C3[C@@H](OC)[C@H]4[C@@H]1[C@]3(C(OC)C[C@H]2O)C1C[C@@]2(O)[C@H](OC(=O)c3ccccc3)C1[C@]4(OC(C)=O)[C@@H](O)[C@@H]2OC (stereo partly drawn)
3. COc1cc(OC)c2c(=O)cc(-c3ccccc3)oc2c1
4. COC(=O)/C(C)=C\CC12OC(C)(C)C3CC(C=C4C(=O)c5c(OC)c6c(c(CC=C(C)C)c5OC431)OC(C)(CCC=C(C)C)C=C6)C2=O (stereo not drawn)
5. CC(=O)OC1CC(O)C(C)(C)C2CC(=O)C3(C)C(CCC4(C)C(c5ccoc5)OC(=O)C5OC543)C12C (stereo not drawn)
6. CN[C@@H]1C(OC2[C@H](O[C@H]3[C@H](O)[C@@H](O)[C@H](N=C(N)N)[C@@H](O)[C@@H]3N=C(N)N)OC(C)[C@]2(O)CO)OC(CO)C(O)C1O (stereo partly drawn)
7. O=c1oc2ccccc2cc1O
8. CC(=O)O[C@H]1CC[C@@]2(C)C(C[C@@H](OC(C)=O)[C@]3(C)C2CC[C@@]2(C)[C@H](c4ccoc4)OC(=O)[C@H]4O[C@]423)C1(C)C (stereo partly drawn)

Reply text:
1: 1.01 (inactive); 2: 1.04 (inactive); 3: 0.943 (inactive); 4: 0.986 (inactive); 5: 0.992 (inactive); 6: 0.976 (inactive); 7: 0.991 (inactive); 8: 1.01 (inactive)

Record normalized growth for all entries; do not skip any.
1. CN=C(N)NCCCC(N)C(=O)O (stereo not drawn)
2. COc1ccc(-c2cc(=O)c3c(OC)cc(OC)cc3o2)cc1
3. Cc1oncc1C(=O)Nc1ccc(C(F)(F)F)cc1
4. NC1(C(=O)O)CCCC1

Reply text:
["0.99 (inactive)", "1 (inactive)", "1 (inactive)", "1 (inactive)"]

List normalized growth for every entry below, keeping the order given.
1. C[C@@H]1CC[C@H]2C(C)(C)C3CC12CC[C@@]3(C)O (stereo partly drawn)
2. CC(C)=CC1C(C(=O)OCc2cccc(Oc3ccccc3)c2)C1(C)C (stereo not drawn)
3. CC1CCC(NC(=O)N(CCCl)N=O)CC1 (stereo not drawn)
4. CC(=O)C1CCC2C3CCC4C[C@H](O)CCC4(C)C3C[C@H](O)C12C (stereo partly drawn)
5. CC(=O)OC1CC(OC(C)=O)C2(C)C(CC(OC(C)=O)C3(C)C2CCC2(C)C(c4ccoc4)OC(=O)C4OC423)C1(C)C (stereo not drawn)

Reply text:
1. 0.987 (inactive)
2. 0.985 (inactive)
3. 1 (inactive)
4. 1 (inactive)
5. 0.987 (inactive)

Give me normalized growth for each of these molecules, listed below.
1. COC(=O)[C@@H]1OC(=O)C2OC23[C@@]1(C)CCC1[C@@]2(C)CCC(=O)C(C)(C)C2C[C@@H](OC(C)=O)[C@]13C (stereo partly drawn)
2. NC(N)=NCCN1CCCCCCC1
3. O=C(O)C(O)C(O)C(=O)O (stereo not drawn)
4. NCC[C@@H](O)C(=O)N[C@@H]1C[C@H](N)[C@@H](O[C@H]2O[C@H](CN)[C@@H](O)[C@H](O)[C@H]2O)[C@H](O)[C@H]1O[C@H]1O[C@H](CO)[C@@H](O)[C@H](N)C1O (stereo partly drawn)
5. CC(=O)O[C@H]1C[C@@H](OC(C)=O)C(C)(C)C2C[C@@H](O)[C@]3(C)C(CC[C@@]4(C)[C@H](c5ccoc5)OC(=O)[C@H]5O[C@]543)[C@]21C (stereo partly drawn)

Reply text:
1: 1 (inactive); 2: 1.02 (inactive); 3: 0.98 (inactive); 4: 1.02 (inactive); 5: 0.989 (inactive)

Inquiry: Please give the measured normalized growth for this molecule: c1ccc2c(CC3=NCCN3)cccc2c1
Reply text: 1.03 (inactive)
